Molecular target: DN-III quality control recombinant protein (produced by Fapon Biotech InC.) (dengue virus)
Assay: BLI, AMC sensor, antibody captured
Kindly apply the following: Yes if Kd is less than 0.8 nM, No in every other case.

Worked set:
[[record]]
binder = "Mutation 1-7 (antibody, V domains shown) VH: EVQLQQSGTELVRPGALVKLSCKASGFNIKDYYIHWVKQRPRQGLEWIGWIDPENGKTLYDPKFQDKASITSDTSTNTAYLQLRSLTSEDTAVYYCVTAYFRFVYWGQGTLVTVSA VL: QIVLTQSPAIMSAFPGERVTMTCSASSSVRYMYWHQQKPGSSPRLLIYDTSNLASGVPVRFSGSGSGTSYSLTISRDEAMDAATYYCQQWSSYPRTFGGGTKLEIKR"
group = "Yes"

[[record]]
binder = "WT 1-20 (antibody, V domains shown) VH: EVQLQQSGTELVRPGALVKLSCKASGFNIKEYYIHWVKQRPRQGLEWIGWIDPDNGKTLYDPKVQDKASITSDTSTNTAYLQLRSLTSEDTAVYYCVSAYFRFVYWGQGTLVTVSA VL: QIVLTQSPAIMSAFPGERVTMTCSASSSVKYMYWHQQKPGSSPRLLIYETSNIASGFPVRFSGSGSGTSYSLTISRDEAMDAATYYCQQQSSYPRTFGGGTKLEIKR"
group = "No"

[[record]]
binder = "anti-dengue virus NS1 3D5 monoclonal antibody (recombinant, expressed in CHO cells) (antibody, mouse IgG1, kappa, V domains shown) VH: EVQLQQSGTELVRPGALVKLSCKASGFNIKDYYVHWVKQRPRQGLEWIGWIDPNNGKTIYDPKFQDKASITSDTSTNTAYLQLRSLTSEDTAVYYCVTAYVRFVYWGQGTLVTVSA VL: QIVLTQSPAIMSAFPGERVTMTCSASTSVKYMYWHQQKPGSSPRLLIYETSNIASGVPVRFSGSGSGTSYSLTISRDEAMDAATYYCQQWSSYPRTFGGGTKLEIKR"
group = "No"


Q: Confirm or reject: Kd of Mutation 1-15 (antibody, V domains shown) VH: EVQLQQSGTELVRPGALVKLSCKASGFNIKDYYVHWVKQRPRQGLEWIGWIDPENGKTIYDPKFQDKASITSDTSTNTAYLQLRSLTSEDTAVYYCVTAYYRFVYWGQGTLVTVSA VL: QIVLTQSPAIMSAFPGERVTMTCSASTSVRYMYWHQQKPGSSPRLLIYDTSNIASGVPVRFSGSGSGTSYSLTISRDEAMDAATYYCQQWSSTPRTFGGGTKLEIKR lies strictly below 0.8 nM
A: Yes

Where do these numbers come from? They come from patent US20240158475A1.
